target: Thyroid hormone receptor beta (Homo sapiens); assay: qHTS assay for small molecule antagonists of thyroid hormone receptor beta signaling (AID 588547); details: TR-UAS-bla HEK293, beta-lactamase ratio, antagonist mode, 18 h;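 also: cells stimulated with 0.4 nM T3 agonist during compound exposure; series mostly up to about 77 µM; % is scaled to controls: 0 for no effect and ±100 for the full control effect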
Records with an inconclusive call do not appear.
metric: activity change % (negative = inhibition) (%)
Only the number, expressed in %, is required.

The following compounds have reported results that may help.
>>> value_measured("CCCCN(CCO)CCCC")
22.2
>>> value_measured("O=C(O)c1ccccc1[N+](=O)[O-]")
6.51

In: Thyroid hormone receptor beta (Homo sapiens) / activity change % (negative = inhibition) / CCCCCCCN : value?
Out: 3.05

In: Thyroid hormone receptor beta (Homo sapiens) / activity change % (negative = inhibition) / Cc1ccccc1C(=O)O : value?
Out: -4.62

In: Thyroid hormone receptor beta (Homo sapiens) / activity change % (negative = inhibition) / O=C(O)/C=C/C(=O)O : value?
Out: 3
